- target under test: protein-protein interaction between Kras and SOS1 (biotin-tagged human Kras loaded with GDP, His-tagged human SOS1) (Homo sapiens (Human), UniProt P01116, G12D)
- test summary: Protein-protein interaction inhibition between Kras and SOS1 (KrasG12D-SOS PPI) using AlphaScreen
- Type: biochemical
- test settings: AlphaScreen; biotin-tagged human Kras loaded with GDP, His-tagged human SOS1; read-out: KRAS G12D-SOS PPI IC50
pIC50: −log10 of the molar value. Numbered stars: 1 amine (or outer) side, 2 acyl side, 3 side chain; on linkers, the order of the positions; unused ones are H or OH. Bridge positions count the residues as written; N and C are the ends. Square brackets hold non-standard residues; d marks the D form. Peptide text beside a SMILES is read from it. * marks the point of attachment. hPhe(3,5-F2-4-CF3) = N[C@@H](CCc1cc(F)c(C(F)(F)F)c(F)c1)C(=O)O; hPhe(3-Cl-4-CF3) = N[C@@H](CCc1ccc(C(F)(F)F)c(Cl)c1)C(=O)O; hPhe(3-F,4-CF3) = N[C@@H](CCc1ccc(C(F)(F)F)c(F)c1)C(=O)O; NEtPhe(4-CF3) = CCN[C@@H](Cc1ccc(C(F)(F)F)cc1)C(=O)O; NEtPhe(4-Cl) = CCN[C@@H](Cc1ccc(Cl)cc1)C(=O)O; NEtPhe(4-Me) = CCN[C@@H](Cc1ccc(C)cc1)C(=O)O; NMePhe(4-Me) = CN[C@@H](Cc1ccc(C)cc1)C(=O)O; NMedβ3hAla = C[C@H](CC(=O)[*:2])N(C)[*:1]; NMeGly(cPent) = CN[C@H](C(=O)O)C1CCCC1; Phe(3-I) = N[C@@H](Cc1cccc(I)c1)C(=O)O; NMeCha = CN[C@@H](CC1CCCCC1)C(=O)O; Gly(N-(CH2)2OEt) = CCOCCNCC(=O)O; Hyp = O=C(O)[C@@H]1C[C@@H](O)CN1; NMeChg = CN[C@H](C(=O)O)C1CCCCC1; NMeI = CC[C@H](C)[C@H](NC)C(=O)O; NMeD = CN[C@@H](CC(=O)O)C(=O)O; NMeL = CN[C@@H](CC(C)C)C(=O)O; NMeV = CN[C@H](C(=O)O)C(C)C; d(β3hA) = C[C@@H](N)CC(=O)O; NMeS = CN[C@@H](CO)C(=O)O; NMeA = CN[C@@H](C)C(=O)O; NMeAib = CNC(C)(C)C(=O)O; Nle = CCCC[C@H](N)C(=O)O; Piperidide = C1CCN(*)CC1; Pyrrolidide = C1CCN(*)C1; Ac5c = NC1(C(=O)O)CCCC1; Aze = O=C(O)[C@@H]1CCN1; Cyclopropyl = C1CC1*; Sar = CNCC(=O)O
Threshold rule: pIC50 greater than or equal to 8 is t; below that, f.

Given CCO[C@@H]1C[C@H]2C(=O)NC3(CCCC3)C(=O)N(C)[C@@H](C3CCCC3)C(=O)N(C)[C@H](C)CC(=O)N(C)[C@@H](CC(C)C)C(=O)N[C@@H]([C@@H](C)CC)C(=O)N(C)[C@@H](C)C(=O)N3CC[C@H]3C(=O)N(CC)[C@@H](Cc3ccc(C(F)(F)F)cc3)C(=O)N(C)CC(=O)N[C@@H](CCc3cc(F)c(C(F)(F)F)c(F)c3)C(=O)N2C1 [Compound 466] (cyclo([Ac5c][NMeGly(cPent)][NMedβ3hAla][NMeL]I[NMeA][Aze][NEtPhe(4-CF3)][Sar][hPhe(3,5-F2-4-CF3)][Hyp](Et))) , state whether its pIC50 is at least 8.
t

Could you do the same for CCOCCN1CC(=O)NC2(CCCC2)C(=O)N(C)[C@@H](C2CCCCC2)C(=O)N(C)[C@H](C(=O)N2CCCCC2)CC(=O)N(C)[C@@H](CC(C)C)C(=O)N[C@@H]([C@@H](C)CC)C(=O)N(C)CC(=O)N(C)CC(=O)N(C)[C@@H](CC2CCCCC2)C(=O)N(C)CC(=O)N[C@@H](CCc2ccc(C(F)(F)F)c(Cl)c2)C1=O [Compound 872] ([NMeL]I[Sar][Sar][NMeCha][Sar][hPhe(3-Cl-4-CF3)][Gly(N-(CH2)2OEt)][Ac5c][NMeChg][NMeD]-Piperidide; lactam N-11) , please?
t

Lookup CCCC[C@@H]1NC(=O)[C@H](CCc2ccc(C(F)(F)F)c(F)c2)NC(=O)CN(C)C(=O)[C@H](Cc2ccc(Cl)cc2)N(CC)C(=O)CN(C)C(=O)CN(C)C(=O)[C@H]([C@@H](C)CC)NC(=O)[C@H](CC(C)C)N(C)C(=O)C[C@@H](C)N(C)C(=O)[C@H](CC(C)C)NC(=O)C(C)(C)N(C)C1=O [Compound 257] (cyclo(I[Sar][Sar][NEtPhe(4-Cl)][Sar][hPhe(3-F,4-CF3)][Nle][NMeAib]L[NMedβ3hAla][NMeL]))
f

Follow-up entry: CCCC[C@@H]1NC(=O)[C@H](Cc2cccc(I)c2)NC(=O)CN(C)C(=O)[C@H](Cc2ccc(C)cc2)N(C)C(=O)[C@@H]2CCN2C(=O)[C@H](C)N(C)C(=O)[C@H]([C@@H](C)CC)NC(=O)[C@H](CC(C)C)N(C)C(=O)C[C@@H](C(=O)N2CCCCC2)N(C)C(=O)[C@H](CC(C)C)NC(=O)[C@H]2CCCN2C1=O [Compound 822] ([NMeL]I[NMeA][Aze][NMePhe(4-Me)][Sar][Phe(3-I)][Nle][dP]L[NMeD]-Piperidide; lactam N-11)
f

Another molecule: CC[C@H](C)[C@@H]1NC(=O)[C@H](CC(C)C)N(C)C(=O)C[C@@H](C(=O)N2CCCC2)N(C)C(=O)[C@H]([C@@H](C)CC)N(C)C(=O)C2(CCCC2)NC(=O)[C@@H]2CCCN2C(=O)[C@H](CCc2ccc(C(F)(F)F)c(Cl)c2)NC(=O)CN(C)C(=O)[C@H](Cc2ccc(C)cc2)N(CC)C(=O)[C@@H]2CCN2C(=O)[C@H](C)N(C)C1=O [Compound 1325] ([NMeL]I[NMeA][Aze][NEtPhe(4-Me)][Sar][hPhe(3-Cl-4-CF3)]P[Ac5c][NMeI][NMeD]-Pyrrolidide; lactam N-11)
t

Can you handle CC[C@H](C)[C@@H]1NC(=O)[C@H](CC(C)C)N(C)C(=O)C[C@@H](C)NC(=O)[C@H](C(C)C)N(C)C(=O)C2(CCCC2)NC(=O)[C@@H]2CCCN2C(=O)[C@H](CCc2ccc(C(F)(F)F)c(Cl)c2)NC(=O)CN(C)C(=O)[C@H](CC2CCCCC2)N(C)C(=O)[C@@H]2CCN2C(=O)[C@H](COC2CC2)N(C)C1=O [Compound 1102] (cyclo([Ac5c][NMeV][d(β3hA)][NMeL]I[NMeS](Cyclopropyl)[Aze][NMeCha][Sar][hPhe(3-Cl-4-CF3)]P)) next?
f

---

- target under test: protein-protein interaction between Kras and SOS1 (biotin-tagged human Kras loaded with GDP, His-tagged human SOS1) (Homo sapiens (Human), UniProt P01116, G12D)
- test summary: Protein-protein interaction inhibition between Kras and SOS1 (KrasG12D-SOS PPI) using AlphaScreen;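 further: kras produced in E. coli, Ni-coupled donor beads and streptavidin acceptor beads, excitation 680 nm with emission detected at 520–620 nm via singlet oxygen transfer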
- Assay type: biochemical
- test settings: AlphaScreen; biotin-tagged human Kras loaded with GDP, His-tagged human SOS1; read-out: KRAS G12D-SOS PPI IC50
Bridge positions count the residues as written; N and C are the ends. Square brackets hold non-standard residues; d marks the D form. Peptide text beside a SMILES is read from it. * marks the point of attachment. hPhe(3-Cl-4-CF3) = N[C@@H](CCc1ccc(C(F)(F)F)c(Cl)c1)C(=O)O; NMeCha = CN[C@@H](CC1CCCCC1)C(=O)O; NMeD = CN[C@@H](CC(=O)O)C(=O)O; NMeL = CN[C@@H](CC(C)C)C(=O)O; NMeA = CN[C@@H](C)C(=O)O; Piperidide = C1CCN(*)CC1; Ac5c = NC1(C(=O)O)CCCC1; Aze = O=C(O)[C@@H]1CCN1; Sar = CNCC(=O)O
metric name: IC50 (nM)
Write the number in nM without appending the unit.

What does the record list as IC50 for CC[C@H](C)[C@@H]1NC(=O)[C@H](CC(C)C)N(C)C(=O)C[C@@H](C(=O)N2CCCCC2)N(C)C(=O)[C@H](CC2CCCCC2)N(C)C(=O)C2(CCCC2)NC(=O)[C@@H]2CCCN2C(=O)[C@H](CCc2ccc(C(F)(F)F)c(Cl)c2)NC(=O)CN(C)C(=O)[C@H](CC2CCCCC2)N(C)C(=O)[C@@H]2CCN2C(=O)[C@H](C)N(C)C1=O [Compound 87] ([NMeL]I[NMeA][Aze][NMeCha][Sar][hPhe(3-Cl-4-CF3)]P[Ac5c][NMeCha][NMeD]-Piperidide; lactam N-11) ?
45
